The measurements presented in this section are drawn from the supplement of paper PMC10037445.

- System: RAW-Dual
- Assay Overview: NF-kB SEAP reporter activity, fold change vs agonist alone; cytotoxicity flag (confluency mask): not cytotoxic; higher = enhanced NF-kB activity
- Run Parameters: agonist: Pam2CSK4 (TLR2/6) 0.1 ug/mL
In all, about 2,900 compounds were measured (“NF-kB SEAP reporter activity, fold change vs agonist alone”: median about 0.99, highest 2% from about 2.6 on). The entries come from a sample that favours the highest values as a whole.
# NF-kB SEAP reporter activity >= 0.8 gives met, anything below gives not met

Compound	Measured On	Label Value
O=C(O)CN(CC(=O)O)c1ccccc1OCCOc1ccccc1N(CC(=O)O)CC(=O)O (library stock concentration (final ~1000-fold dilution): 10 mM)	RAW-Dual	met
CCC(CC)(NC(=O)C(C)C)C(=O)NC(CCCNC(=N)N)C(=O)NC1(C(=O)NC(c2ccc(F)cc2)c2ccc(F)cc2)CCCC1 (stereo not given) (library stock concentration (final ~1000-fold dilution): 10 mM)	RAW-Dual	met
CCOc1ccc(Cc2cc(C34OCC(CO)(O3)C(O)C(O)C4O)ccc2Cl)cc1 (stereo not given) (library stock concentration (final ~1000-fold dilution): 10 mM)	RAW-Dual	met
Cc1nc(Nc2ncc(C(=O)Nc3c(C)cccc3Cl)s2)cc(N2CCN(CCO)CC2)n1.O (library stock concentration (final ~1000-fold dilution): 10 mM)	RAW-Dual	not met
CCN(CC)Cc1ccc2cc(COC(=O)Nc3ccc(C(=O)NO)cc3)ccc2c1.Cl.O (library stock concentration (final ~1000-fold dilution): 10 mM)	RAW-Dual	met
CCNC(=O)Nc1ccc(-c2nc3c(c(N4CCOCC4C)n2)CCN(C2COC2)C3)cc1 (stereo not given) (library stock concentration (final ~1000-fold dilution): 10 mM)	RAW-Dual	not met
CCOc1ccc(CC2NC(=O)CCSSCC(C(=O)N3CCCC3C(=O)NC(CCCN)C(=O)NCC(N)=O)NC(=O)C(CC(N)=O)NC(=O)C(C(C)O)NC(=O)C(C(C)CC)NC2=O)cc1 (stereo not given) (library stock concentration (final ~1000-fold dilution): 10 mM water)	RAW-Dual	met
CCOc1cc(C(CS(C)(=O)=O)N2C(=O)c3cccc(NC(C)=O)c3C2=O)ccc1OC (stereo not given) (library stock concentration (final ~1000-fold dilution): 10 mM)	RAW-Dual	met
CC12CCC3c4ccc(O)cc4CC(CCCCCCCCCS(=O)CCCC(F)(F)C(F)(F)F)C3C1CCC2O (stereo not given) (library stock concentration (final ~1000-fold dilution): 10 mM)	RAW-Dual	not met

---

- System: RAW-Dual
- Assay Overview: NF-kB SEAP reporter activity, fold change vs agonist alone; cytotoxicity flag (confluency mask): not cytotoxic; higher = enhanced NF-kB activity
- Run Parameters: agonist: Pam3CSK4 (TLR2/1) 0.1 ug/mL
In all, about 2,900 compounds were measured (“NF-kB SEAP reporter activity, fold change vs agonist alone”: median about 0.99, highest 2% from about 2.6 on). Only a selection was taken, and the highest values are over-represented in it overall.
# NF-kB SEAP reporter activity >= 1 gives condition met, anything below gives condition not met

Molecule	Label Value
CCOC(=O)C1=C(C)NC(C)=C(C(=O)OC)C1c1cccc(Cl)c1Cl (configuration not stated) (library stock concentration (final ~1000-fold dilution): 10 mM)	condition not met
Fc1ccc(CNc2ncnc3ccc(F)cc23)cc1 (library stock concentration (final ~1000-fold dilution): 10 mM)	condition met
CC(C)CC(NC(=O)C1OC1C(=O)O)C(=O)NCCCCNC(=N)N (configuration not stated) (library stock concentration (final ~1000-fold dilution): 10 mM)	condition met
Nc1cccc2c1C(=O)N(C1CCC(=O)NC1=O)C2=O (configuration not stated) (library stock concentration (final ~1000-fold dilution): 10 mM)	condition met
CNC(C)C(=O)NC1CN(C(=O)CC(C)C)CCC2CCC(C(=O)NC(c3ccccc3)c3ccccc3)N2C1=O (configuration not stated) (library stock concentration (final ~1000-fold dilution): 10 mM)	condition met
Cc1ccc(C(=O)N(CCCN)C(c2oc3cc(Cl)ccc3c(=O)c2Cc2ccccc2)C(C)C)cc1.Cl (configuration not stated) (library stock concentration (final ~1000-fold dilution): 10 mM)	condition not met
Cc1cc(Nc2ccc(NC(=O)c3ccc(Nc4ccnc5ccccc45)cc3)cc2)nc(N)n1 (library stock concentration (final ~1000-fold dilution): 10 mM)	condition met
COC(=O)C1=C(C)NC(C)=C(C(=O)OCC(C)C)C1c1ccccc1[N+](=O)[O-] (configuration not stated) (library stock concentration (final ~1000-fold dilution): 10 mM)	condition not met
O=C1CCC(N2C(=O)c3ccccc3C2=O)C(=O)N1 (configuration not stated) (library stock concentration (final ~1000-fold dilution): 10 mM)	condition met
COC(=O)C1=C(C)NC(C)=C(C(=O)OC)C1c1ccccc1[N+](=O)[O-] (library stock concentration (final ~1000-fold dilution): 10 mM)	condition met
CC1OC(OC2C(=O)c3c(O)cc(O)cc3OC2c2ccc(O)cc2)C(O)C(O)C1O (configuration not stated) (library stock concentration (final ~1000-fold dilution): 10 mM)	condition met
CCCC(=O)OCOC(=O)C1=C(C)NC(C)=C(C(=O)OC)C1c1cccc(Cl)c1Cl (configuration not stated) (library stock concentration (final ~1000-fold dilution): 10 mM)	condition met
Nc1ncnc2[nH]nc(Nc3ccc(F)cc3)c12 (library stock concentration (final ~1000-fold dilution): 10 mM)	condition met
O.S=c1nc[nH]c2nc[nH]c12 (library stock concentration (final ~1000-fold dilution): 10 mM)	condition not met
O=C1NC(=O)C(c2cn3c4c(cccc24)CCC3)C1c1c[nH]c2ccccc12 (configuration not stated) (library stock concentration (final ~1000-fold dilution): 10 mM)	condition met
C=CC(=O)Nc1cccc(Sc2nc(Nc3ccc(N4CCN(C)CC4)cc3)ncc2Cl)c1 (library stock concentration (final ~1000-fold dilution): 10 mM)	condition not met
Nc1ccn(C2CSC(CO)O2)c(=O)n1 (configuration not stated) (library stock concentration (final ~1000-fold dilution): 10 mM)	condition met

---

- Tested on: RAW-Dual
- Assay Overview: NF-kB SEAP reporter activity, fold change vs agonist alone; cytotoxicity flag (confluency mask): not cytotoxic; higher = enhanced NF-kB activity
- Run Parameters: agonist: Pam3CSK4 (TLR2/1) 0.1 ug/mL
The full ranking holds about 2,900 compounds; the median of “NF-kB SEAP reporter activity, fold change vs agonist alone” is about 0.99, and the highest 2% start at about 2.6. This is one part of a sample in which the highest values are shown more often than they occur.
Recorded Endpoint: NF-kB SEAP reporter activity

Compound	Result
C=CC1CC1(NC(=O)C1CC2CN1C(=O)C(C(C)(C)C)NC(=O)OC1CC1CCCCCc1nc3ccc(OC)cc3nc1O2)C(=O)NS(=O)(=O)C1CC1 (stereo not given) (library stock concentration (final ~1000-fold dilution): 10 mM)	0.835
CCC(C)n1cc(C)c2c(C(=O)NCc3c(C)cc(C)[nH]c3=O)cc(-c3ccc(N4CCNCC4)nc3)cc21 (stereo not given) (library stock concentration (final ~1000-fold dilution): 2 mM)	1.07
CC(C)(C)C1NC(=O)OC2CCCC2OC/C=C/C(F)(F)c2nc3ccccc3nc2OC2CC(C(=O)NC3(C(=O)NS(=O)(=O)C4(C)CC4)CC3C(F)F)N(C2)C1=O (stereo not given) (library stock concentration (final ~1000-fold dilution): 10 mM)	2.09
CCOC1OC(=O)CC1NC(=O)C1CCCN1C(=O)C(NC(=O)c1ccc(N)c(Cl)c1)C(C)(C)C (stereo not given) (library stock concentration (final ~1000-fold dilution): 10 mM)	0.976
O=C1CN(/N=C/c2ccc([N+](=O)[O-])o2)C(=O)N1 (library stock concentration (final ~1000-fold dilution): 10 mM)	1.11
N#C/C(C(=O)c1ccc(Cl)cc1Cl)=C1\NC(=O)c2ccccc2N1 (library stock concentration (final ~1000-fold dilution): 10 mM)	0.693
O=C1NC(=O)C(c2cnc3ccccn23)=C1c1cn2c3c(cc(F)cc13)CN(C(=O)N1CCCCC1)CC2 (library stock concentration (final ~1000-fold dilution): 10 mM)	1.84
CCOC(=O)C(CCc1ccccc1)NC(C)C(=O)N1C(=O)N(C)CC1C(=O)O.Cl (stereo not given) (library stock concentration (final ~1000-fold dilution): 10 mM)	1.03
CC(=O)c1c(C)c2cnc(Nc3ccc(N4CCNCC4)cn3)nc2n(C2CCCC2)c1=O.O=S(=O)(O)CCO (library stock concentration (final ~1000-fold dilution): 10 mM water)	1.29
Br.COc1cc(Br)c(Nc2nc(-c3c(C)nc4ncccn34)cs2)c(Br)c1 (library stock concentration (final ~1000-fold dilution): 10 mM)	0.861

---

Readings of NF-kB SEAP reporter activity for the listed molecules
- Test system: RAW-Dual
- Assay Overview: NF-kB SEAP reporter activity, fold change vs agonist alone; cytotoxicity flag (confluency mask): not cytotoxic; higher = enhanced NF-kB activity
- Run Parameters: agonist: ODN 1826 (TLR9) 0.5 ug/mL
Over roughly 2,900 compounds, “NF-kB SEAP reporter activity, fold change vs agonist alone” has its median near 0.99; the highest 2% begin near 2.6. Only a selection was taken, and the highest values are over-represented in it overall.

Molecule	NF-kB SEAP reporter activity
Cn1cc(C2=C(c3cccc(N)c3)C(=O)NC2=O)c2ccccc21 (library stock concentration (final ~1000-fold dilution): 10 mM)	2.18
Cc1noc(C)c1-c1ccc2[nH]c(=O)n3c2c1OCC3c1ccccn1 (stereo unspecified) (library stock concentration (final ~1000-fold dilution): 10 mM)	1.67
CCOC(=O)/C=C/c1ccc(O)c(OC)c1 (library stock concentration (final ~1000-fold dilution): 10 mM)	1.03
COc1ccc(-c2ccc3c(N4CCOCC4C)nc(N4CCOCC4C)nc3n2)cc1CO (stereo unspecified) (library stock concentration (final ~1000-fold dilution): 10 mM)	1.12
C=CC(=O)Nc1cc(Nc2nccc(-n3cc(CN(C)C)c(-c4ccccc4)n3)n2)c(OC)cc1N1CCOCC1 (library stock concentration (final ~1000-fold dilution): 2 mM)	0.945
CC#Cc1cncc(-c2ccc3c(c2)C2(N=C(C)C(N)=N2)C2(CCC(OC)CC2)C3)c1 (stereo unspecified) (library stock concentration (final ~1000-fold dilution): 10 mM)	0.723
COc1cc2c(cc1NS(=O)(=O)c1ccc(Br)cc1C)n(C)c(=O)n2C (library stock concentration (final ~1000-fold dilution): 10 mM)	1.23
CC(=O)OC1CC2CCC3C(CCC4(C)C3CC([N+]3(C)CCCCC3)C4OC(C)=O)C2(C)CC1N1CCCCC1 (stereo unspecified) (library stock concentration (final ~1000-fold dilution): 10 mM)	1.02
COc1ccccc1S(=O)(=O)Nc1ccc2c(c1)CN(C)C(=O)N2 (library stock concentration (final ~1000-fold dilution): 10 mM)	2.25
CCN1CCN(Cc2ccc(-c3cc4c(NC(C)c5ccccc5)ncnc4[nH]3)cc2)CC1 (stereo unspecified) (library stock concentration (final ~1000-fold dilution): 10 mM)	0.215
COc1ccccc1N1CCN(CCCNc2cc(=O)n(C)c(=O)n2C)CC1.Cl (library stock concentration (final ~1000-fold dilution): 10 mM)	0.978
COC1/C=C/OC2(C)Oc3c(C)c(O)c4c(O)c(c(/C=N/N5CCN(C)CC5)c(O)c4c3C2=O)NC(=O)/C(C)=C/C=C/C(C)C(O)C(C)C(O)C(C)C(OC(C)=O)C1C (stereo unspecified) (library stock concentration (final ~1000-fold dilution): 10 mM)	0.979
Cn1cc(C2=C(c3ccc(Cl)cc3Cl)C(=O)NC2=O)c2ccccc21 (library stock concentration (final ~1000-fold dilution): 10 mM)	2.04
CC(C)CC(NP(=O)(O)OC1OC(C)C(O)C(O)C1O)C(=O)NC(Cc1c[nH]c2ccccc12)C(=O)O (stereo unspecified) (library stock concentration (final ~1000-fold dilution): 10 mM)	0.986
Cc1nc2cc(F)c(F)cc2n1-c1cncc(Nc2ccc(C(F)(F)F)cc2)n1 (library stock concentration (final ~1000-fold dilution): 10 mM)	1.31
CN1c2ccccc2C(=O)Nc2cnc(Nc3ccc(N4CCC(O)CC4)cc3)nc21 (library stock concentration (final ~1000-fold dilution): 10 mM)	1.18
C/C=C1/C2C=C(C)CC1(N)c1ccc(=O)[nH]c1C2 (stereo unspecified) (library stock concentration (final ~1000-fold dilution): 2 mM)	1.01
CCOC(=O)NC1CCC2C(C1)CC1C(=O)OC(C)C1C2/C=C/c1ccc(-c2cccc(F)c2)cn1 (stereo unspecified) (library stock concentration (final ~1000-fold dilution): 10 mM)	0.243
Cl.O=C1c2cccc3c2C(CCC3)CN1C1CN2CCC1CC2 (stereo unspecified) (library stock concentration (final ~1000-fold dilution): 10 mM water)	0.593
CC12CC(O)C3CC1(OC1OC(CO)C(O)C(O)C1O)C3(COC(=O)c1ccccc1)C(=O)O2 (stereo unspecified) (library stock concentration (final ~1000-fold dilution): 10 mM)	0.943
O=C(/C=C/c1ccccc1)NC(NC(=S)Nc1cccc2cccnc12)C(Cl)(Cl)Cl (stereo unspecified) (library stock concentration (final ~1000-fold dilution): 10 mM)	0.429
